# reported EC50; entries follow
# STUDY_TARGET: T1, mucin domain-deleted Zaire GP (GPdMuc) (Ebola (Zaire) virus (EBOV), UniProt Q05320 33-632)
# T1 construct: also called Zaire GPdMuc; GP(Z)dMuc
# TEST: ELISA on coated GP
// note: answer is a bare numeric in µg/mL

antibody 314L (antibody, V domains shown) VH: EERLVESGGGLVQPGGSLRLSCAASGFTFGDYAMHWVRQVPGKSLEWLSGISWSGYTTYSADSVKGRFTISRDNAKNSLYLQMNRLRPEDTGLYYCVTLIGAIGIKDSLDVWGRGVLVTVSS VL: EVVFTQPHSVSGSPGQMVTISCTRSSGTIDNSYVYWHQQRPGSAPTTVIYNDDQRPSGVPDRFSGSIDSSSNSASLTISGLKSEDEADYYCQSYDSSGWVFGGGTRLTVL; 2.6

Okay, now this binder:
Find the recorded EC50 belonging to antibody 315L (antibody, V domains shown) VH: QVQLQESGPGLVKPSETLSLTCTVSGGSITGNYWTWVRQPPGKGLQYIGRFDAGGKTYYNPPLKSRVSILGDKSKNQVSLNLTSVTVADTGVYYCAREQWGQLLSGSFDVWGRGVLVTVSS VL: SYELTQPPSVSVSPGQTARITCSGDALPDYYAHWYQQKSGQAPMLVIYKDTERPSGIPERFSGSSSGTTVSLTISGVQAEDEADYYCQSGDSSGNHWVFGGGTRLTVL and report it. 1.5

Data origin, for the record: patent US20260209316A1
